Target: UniProt P14920
Below is a list of entries, each paired with its recorded IC50 value.

| Entry Smiles | IC50 |
| --- | --- |
| O=c1[nH]cc(SCc2cc(F)cc(Cl)c2)cc1O | 230 nM |
| O=c1[nH]cc(SCc2cccc(Cl)c2)cc1O | 55 nM |
| Cc1cccc(CSc2c[nH]c(=O)c(O)c2)c1 | 240 nM |

---

pIC50: −log10 of the molar value.
Reported pIC50 for target or system Human DAAO enzyme (Homo sapiens (Human), UniProt P14920), by entry.

| Entry Smiles | pIC50 |
| --- | --- |
| O=c1[nH]cc(SCc2ccc(F)c(F)c2)cc1O | 7.35 |
| O=c1[nH]cc(SCc2ccc(Cl)cn2)cc1O | 6.44 |
| Cc1ccc(CSc2c[nH]c(=O)c(O)c2)nc1 | 6.31 |
| O=c1[nH]cc(CCc2ccccc2)cc1O | 6.85 |
| O=c1[nH]cc(SCc2ccc(C(F)(F)F)nc2)cc1O | 6.80 |
| Cc1ccccc1CCc1c[nH]c(=O)c(O)c1 | 6.46 |
| O=c1[nH]cc(SCc2cnccn2)cc1O | 6.00 |
| Cc1ccc(CSc2c[nH]c(=O)c(O)c2)cc1 | 7.54 |
| O=c1[nH]cc(CCc2ccc(F)cc2)cc1O | 7.21 |
| O=c1[nH]cc(SCc2cccc(F)c2)cc1O | 6.89 |
| O=c1[nH]c(SCc2ccccc2)ccc1O | 5.85 |

Source listed as patent US9180122B2.
